Target: Dual specificity protein phosphatase 1 (Homo sapiens, UniProt P28562)
Sequence (P28562 whole entry): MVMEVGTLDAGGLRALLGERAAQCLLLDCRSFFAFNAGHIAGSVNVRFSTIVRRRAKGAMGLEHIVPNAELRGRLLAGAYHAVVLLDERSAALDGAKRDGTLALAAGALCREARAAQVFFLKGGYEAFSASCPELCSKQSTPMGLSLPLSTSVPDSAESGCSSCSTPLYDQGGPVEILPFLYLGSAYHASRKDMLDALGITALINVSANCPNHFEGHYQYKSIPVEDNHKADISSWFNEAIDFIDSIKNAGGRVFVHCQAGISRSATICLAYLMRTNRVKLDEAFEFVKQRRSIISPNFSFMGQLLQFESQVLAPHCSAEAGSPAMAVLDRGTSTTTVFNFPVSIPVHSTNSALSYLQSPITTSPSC
Test: Inhibition of His-tagged DUSP1 catalytic domain (152 to 323 residues) (unknown origin) using DiFMUP as substrate incubated for 30 mins by spectrofluorometric analysis
Details: read-out: IC50
OUTCOME MEASURE: pIC50
Note on pIC50: it is the negative log10 of concentration, concentration in mol/L.

Cc1ccc(C(=O)NC(=S)Nc2cccc(-c3nc4cc(Cl)ccc4o3)c2)cc1; 4.77
O=C(NC(=S)Nc1cccc(-c2nc3cc(Cl)ccc3o2)c1)c1ccccc1F; 4.77
Cc1ccc2oc(-c3cccc(NC(=S)NC(=O)c4ccccc4)c3)nc2c1; 4.80
Cc1ccc2oc(-c3cc(NC(=S)NC(=O)c4ccccc4)ccc3Cl)nc2c1; 4.80
Cc1ccc(C(=O)NC(=S)Nc2ccc(Cl)c(-c3nc4cc(C)ccc4o3)c2)cc1; 5.08

Would you kindly share the measured pIC50 for `O=C(NC(=S)Nc1cccc(-c2nc3cc(Cl)ccc3o2)c1)c1ccc(Br)cc1` ? 5.57

Would you kindly share the measured pIC50 for `Cc1ccc2oc(-c3cc(NC(=S)NC(=O)c4ccc(Br)cc4)ccc3Cl)nc2c1` ? 5.06

Would you kindly share the measured pIC50 for `O=C(NC(=S)Nc1cccc(-c2nc3ccccc3o2)c1)c1ccccc1` ? 4.60

Would you kindly share the measured pIC50 for `Cc1ccc2oc(-c3cccc(NC(=S)NC(=O)c4ccc(Br)cc4)c3)nc2c1` ? 5.10

Would you kindly share the measured pIC50 for `CCc1ccc(C(=O)NC(=S)Nc2cccc(-c3nc4cc(C)ccc4o3)c2)cc1` ? 4.68
